target: KRasG12C (M1-K169, biotinylated on the N-terminus) (Homo sapiens (Human), UniProt P01116, G12C); assay: Covalent competition assay: scintillation proximity assay (SPA) quantifying covalent modification of KRASG12C; settings: competition with radiolabeled covalent probe (Compound B/Compound A), 2 hours incubation, 10 nM KRasG12C
REPORTED PROPERTY: IC50

Query C=CC(=O)N1CC2(CC(n3nc(N4CCC(CN5CC6CC(C5)O6)CC4(C)C)c(-c4c(Cl)c(Cl)cc5[nH]ncc45)c3C)C2)C1 (single isomer, unassigned) [Example 228a] yields IC50 of > 5 µM

Query C=CC(=O)N1CC2(CC(n3nc(N4CCc5cnn(C)c5C4)c(-c4c(Cl)c(C)cc5[nH]ncc45)c3C)C2)C1 (single isomer, unassigned) [Example 14a] yields IC50 of > 50 µM

Query C=CC(=O)N1CC2(CC(n3nc(N4CCN(C5CCCOC5)C[C@]4(C)CC)c(-c4c(Cl)c(C)cc5[nH]ncc45)c3C)C2)C1 (single isomer, unassigned) [Example 157b] yields IC50 of > 5 µM

Query C=CC(=O)N1CC2(CC(n3nc(N4CCN(C[C@H]5COCCO5)CC45CCC5)c(-c4c(Cl)c(C)cc5[nH]ncc45)c3C)C2)C1 (single isomer, unassigned) [Example 189a] yields IC50 of > 5 µM

Query C=CC(=O)N1CC2(CC(n3nc(N4CC[C@@H](CN5CC6CC(C5)N6C(C)=O)CC4(C)C)c(-c4c(Cl)c(Cl)cc5[nH]ncc45)c3C)C2)C1 (single isomer, unassigned) [Example 301b] yields IC50 of < 0.005 µM

Query C=CC(=O)N1CC2(CC(n3nc(N4CCN(C5COC5)C[C@]4(C)COC)c(-c4c(Cl)c(C)cc5[nH]ncc45)c3C)C2)C1 (single isomer, unassigned) [Example 147a] yields IC50 of 0.008 µM

----------
What pIC50 was measured for each of the following?
target: KRasG12C (M1-K169, biotinylated on the N-terminus) (Homo sapiens (Human), UniProt P01116, G12C); experiment: Covalent competition assay: scintillation proximity assay (SPA) quantifying covalent modification of KRASG12C; conditions: competition with radiolabeled covalent probe (Compound B/Compound A), 2 hours incubation, 10 nM KRasG12C
pIC50: −log10 of the molar value.

Query C=CC(=O)N1CC2(CC(n3nc(N4CC[C@@H](CN5CC6C5CCN6C5COC5)CC4(C)C)c(-c4c(Cl)c(Cl)cc5[nH]ncc45)c3C)C2)C1 (single isomer, unassigned) [Example 278a] yields pIC50 of < 5.30

Query C=CC(=O)N1CC2(CC(n3nc(N4CCN(C[C@@H]5COCCO5)C[C@]4(C)CC)c(-c4c(Cl)c(C)cc5c4cnn5C)c3C)C2)C1 (single isomer, unassigned) [Example 109b] yields pIC50 of < 5.30

Query C=CC(=O)N1CC2(CC(n3nc(N4CCN(C(C)=O)CC4)c(-c4c(Cl)ccc5[nH]ncc45)c3C)C2)C1C (single isomer, unassigned) [Example 197a] yields pIC50 of < 4.30

----------
target: KRasG12C (M1-K169, biotinylated on the N-terminus) (Homo sapiens (Human), UniProt P01116, G12C); assay: Covalent competition assay: scintillation proximity assay (SPA) quantifying covalent modification of KRASG12C; conditions: competition with radiolabeled covalent probe (Compound B/Compound A), 2 hours incubation, 10 nM KRasG12C
pIC50: −log10 of the molar value.
REPORTED PROPERTY: pIC50

Query C=CC(=O)N1CC2(CC(n3nc(N4CC(c5cccnc5)C4)c(-c4c(Cl)c(C)cc5[nH]ncc45)c3C)C2)C1 (single isomer, unassigned) [Example 37a] yields pIC50 of < 4.30

Query C=CC(=O)N1CC2(CCC(n3nc(N4CCN(C(C)=O)CC4)c(-c4c(Cl)ccc5[nH]ncc45)c3C)C2)C1 (single isomer, unassigned) [Example 53b] yields pIC50 of < 4.30

Query C=CC(=O)N1CC2(CC(n3nc(N4CCN(CC(C)(C)O)CC45CCC5)c(-c4c(Cl)c(C)cc5[nH]ncc45)c3C)C2)C1 (single isomer, unassigned) [Example 160a] yields pIC50 of < 5.30
